study_target: Recombinant human CBP containing the bromodomain (CBP-BD (1043-1159)) (Homo sapiens, UniProt Q92793)
Construct: Recombinant human CBP bromodomain (CBP-BD (1043-1159)); made in house; host or cells: E. coli BL21-CodonPlus (DE3), modified pET vector
Sequence (Q92793 1081-1197): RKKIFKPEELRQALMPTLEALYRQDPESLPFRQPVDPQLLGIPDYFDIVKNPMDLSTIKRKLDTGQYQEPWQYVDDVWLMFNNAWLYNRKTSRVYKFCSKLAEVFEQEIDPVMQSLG
method_notes: CBP Alphascreen binding assay
measurement_parameters: read-out: CREBBP (CBP) IC50
pIC50: −log10 of the molar value.
readout: pIC50

Sample records with pIC50:
[[record]]
compound = "Cc1noc(C)c1-c1cnc2c(c1)c(-c1c(Cl)cc(C(=O)O)cc1OC(F)(F)F)cn2[C@H]1CCOC1"
readout = "pIC50"
measured_value = "6.00 to 10.00"

[[record]]
compound = "Cc1noc(C)c1-c1cnc2c(-c3cccc(C(=O)O)c3C)c(C(F)(F)F)n([C@@H](C)c3ccccn3)c2c1"
readout = "pIC50"
measured_value = "5.10 to 6.00"

[[record]]
compound = "COC(=O)c1ccc(-c2cn(S(=O)(=O)c3ccc(C)cc3)c3ncc(-c4c(C)noc4C)cc23)cc1"
readout = "pIC50"
measured_value = "3.00 to 5.10"


Provide only the value of recorded pIC50 for `Cc1noc(C)c1-c1cnc2c(c1)c(-c1ccc(C(=O)O)cc1OC(F)(F)F)cn2-c1cnc(C2CC2)nc1`
6.00 to 10.00

Provide only the value of recorded pIC50 for `Cc1noc(C)c1-c1cnc2c(c1)c(-c1ccc(C(=O)O)cc1OCC(F)F)cn2-c1ccncc1Cl`
6.00 to 10.00

Provide only the value of recorded pIC50 for `Cc1noc(C)c1-c1cnc2c(c1)c(-c1ccc(C(=O)O)cc1OC(F)(F)F)c(C)n2C(C1CC1)C1CC1`
6.00 to 10.00

Provide only the value of recorded pIC50 for Cc1noc(C)c1-c1cnc2c(c1)c(-c1ccc(C(=O)O)cc1)cn2C(C)c1ccc(F)cn1 (centres unmarked)
6.00 to 10.00

Provide only the value of recorded pIC50 for `CCOc1cc(C(=O)O)cc(OCC)c1-n1cc(-c2ccc(F)c(Cl)c2)c2ncc(-c3c(C)noc3C)cc21`
6.00 to 10.00

Provide only the value of recorded pIC50 for `Cc1ccc(S(=O)(=O)n2cc(-c3ccc(C(=O)O)cc3)c3cc(-c4c(C)noc4C)cnc32)cc1`
5.10 to 6.00

Provide only the value of recorded pIC50 for `CCOc1nc(C(=O)O)c(C)cc1-c1cn(C(C2CC2)C2CC2)c2ncc(-c3c(C)noc3C)cc12`
6.00 to 10.00

Provide only the value of recorded pIC50 for `Cc1noc(C)c1-c1cnc2c(c1)c(-c1c(Cl)cc(C(=O)O)cc1OC(F)(F)F)cn2-c1ncccc1C#N`
6.00 to 10.00

----------
study_target: Recombinant human CBP containing the bromodomain (CBP-BD (1043-1159)) (Homo sapiens)
Construct: Recombinant human CBP bromodomain (CBP-BD (1043-1159))
method_notes: CBP Alphascreen binding assay
measurement_parameters: read-out: CREBBP (CBP) IC50
The reader will find reported IC50 values listed item by item below.

Sample records with IC50:
[[record]]
compound = "Cc1noc(C)c1-c1cnc2c(CC3CCC3)cn(-c3ccc(O)nc3)c2c1"
readout = "IC50"
measured_value = "1000 to 8000 nM"

[[record]]
compound = "CCOc1cc(C(=O)O)cc(OCC)c1-n1cc(C(O)(C2CC2)C2CC2)c2ncc(-c3c(C)noc3C)cc21"
readout = "IC50"
measured_value = "0.1 to 1000 nM"

[[record]]
compound = "Cc1noc(C)c1-c1cnc2c(c1)c(-c1ccc(C(=O)O)cn1)cn2C(C)c1ccccn1 (stereo not drawn)"
readout = "IC50"
measured_value = "0.1 to 1000 nM"

[[record]]
compound = "Cc1noc(C)c1-c1cnc2c(c1)c(-c1ccc(C(=O)O)cc1OC(F)(F)F)cn2-c1cnccc1Cl"
readout = "IC50"
measured_value = "0.1 to 1000 nM"


Provide only the value of recorded IC50 for Cc1noc(C)c1-c1cnc2c(c1)c(-c1c(F)ccc(NS(C)(=O)=O)c1F)cn2C(C)c1ccccn1 (stereo not drawn)
1000 to 8000 nM

Provide only the value of recorded IC50 for `Cc1noc(C)c1-c1cnc2c(-c3cc(F)cc(C(=O)O)c3)c(C(F)(F)F)n([C@@H](C)c3ccccn3)c2c1`
0.1 to 1000 nM
